Source: patent US20260297085A1

Target: human JAK2 kinase domain (JH1) (Homo sapiens)
Construct: recombinantly generated catalytic kinase (also known as JH1) domain of human JAK1, JAK2, JAK3 and TYK2
Sequence (O60674 849-1124 limits assumed): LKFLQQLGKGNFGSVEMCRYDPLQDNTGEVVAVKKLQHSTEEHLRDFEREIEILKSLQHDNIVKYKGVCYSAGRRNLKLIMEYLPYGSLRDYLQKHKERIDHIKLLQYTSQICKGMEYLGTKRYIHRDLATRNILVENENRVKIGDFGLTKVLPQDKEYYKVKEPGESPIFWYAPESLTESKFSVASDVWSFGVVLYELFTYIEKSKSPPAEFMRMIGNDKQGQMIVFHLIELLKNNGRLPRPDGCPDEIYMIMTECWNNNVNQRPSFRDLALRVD
Assay: JH1 biochemical assay for JAK2 (ADP-Glo kinase assay, recombinant JH1 catalytic domain, JAK3-974 peptide, 15 μM ATP)
Details: JH1 kinase domain, ADP-Glo
Where a name gives a salt, the structure may show the parent alone.
IC50 values for the molecules below.

1. C[C@@H]1C[C@@](C#N)(C2CC2)C(=O)N1c1ccnn2cc(-c3cnn(C)c3)cc12 : 0.1 to 1 µM
2. C[C@@H]1CN(c2ccnn3cc(-c4cccc5nccn45)cc23)C(=O)[C@]1(C#N)C1CC1 [Example 141, trifluoroacetate] : 1 to 5 µM
3. C[C@@H]1CN(c2nc(-c3cnn(C(F)F)c3)cn3ncc(F)c23)C(=O)[C@]1(C#N)C1CC1 : 0.1 to 1 µM
4. C[C@@H]1CN(c2ccnn3cc(-c4cnn(C5CC5)c4)cc23)C(=O)[C@]1(C#N)C1CC1 : 0.1 to 1 µM
5. C[C@@H]1CN(c2ccnn3c(F)c(-c4cnn(C)c4)cc23)C(=O)[C@]1(C#N)C1CC1 : 5 to 10 µM

// IC50 value for `CCOCCn1cc(-c2cc3c(N4C[C@@H](C)[C@@](C#N)(C5CC5)C4=O)ccnn3c2)cn1` : 0.1 to 1 µM

The molecule `Cc1ncc(-c2cc3c(N4C[C@@H](C)[C@@](C#N)(C5CC5)C4=O)ccnn3c2)cn1` showed IC50 equal to 1 to 5 µM

* * *

Biological target: human TYK2 kinase domain (JH1) (Homo sapiens, UniProt P29597)
Construct: recombinantly generated catalytic kinase (also known as JH1) domain of human JAK1, JAK2, JAK3 and TYK2
Sequence (P29597 897-1176 limits assumed): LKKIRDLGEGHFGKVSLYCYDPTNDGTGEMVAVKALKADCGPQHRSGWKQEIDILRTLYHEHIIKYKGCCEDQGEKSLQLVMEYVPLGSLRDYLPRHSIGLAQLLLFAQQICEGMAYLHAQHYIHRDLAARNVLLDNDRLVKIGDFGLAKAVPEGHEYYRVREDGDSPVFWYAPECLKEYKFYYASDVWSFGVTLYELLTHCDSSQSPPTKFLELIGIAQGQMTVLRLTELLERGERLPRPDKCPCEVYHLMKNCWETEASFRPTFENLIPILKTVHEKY
Experiment: JH1 biochemical assay for TYK2 (ADP-Glo kinase assay, recombinant JH1 catalytic domain, JAK3-974 peptide, 10 μM ATP)
Conditions: JH1 kinase domain, ADP-Glo
Protocol: Compounds of the disclosure were assessed for their ability to inhibit TYK2, JAK1, JAK2, and JAK3 activity. The inhibitory properties of the compounds of the disclosure described herein can be evidenced by testing in any one of the following protocols. The kinase activity of recombinantly generated catalytic kinase (also known as JH1) domain of human JAK1, JAK2, JAK3 and TYK2 were evaluated in a plate-based assay using the ADP-Glo™ Kinase Assay platform. […]
Where a name gives a salt, the structure may show the parent alone.
# IC50 per entry

For orientation, consider the following solved cases.
1) C[C@@H]1CN(c2ccnn3cc(-c4cnc(C(F)F)s4)cc23)C(=O)[C@]1(C#N)C1CC1 [Example 101, trifluoroacetate] : 5 to 20 nM
2) C[C@@H]1CN(c2ccnn3cc(-c4cc(CO)ccn4)cc23)C(=O)[C@]1(C#N)C1CC1 [Example 148, trifluoroacetate] : 20 to 50 nM
3) C[C@@H]1CN(c2ccnn3cc(-c4cnn(S(C)(=O)=O)c4)cc23)C(=O)[C@]1(C#N)C1CC1 : < 5 nM
4) COc1ncccc1-c1cc2c(N3C[C@@H](C)[C@@](C#N)(C4CC4)C3=O)ccnn2c1 : 5 to 20 nM
5) C[C@@H]1CN(c2ccnn3cc(-c4cn(C)nn4)cc23)C(=O)[C@]1(C#N)C1CC1 [Example 112, trifluoroacetate] : 5 to 20 nM

--- query ---
// recorded IC50 for `C[C@@H]1CN(c2ccnn3cc(-c4cccc5c4cnn5C)cc23)C(=O)[C@]1(C#N)C1CC1` : 5 to 20 nM
